# Test system: LXRa homodimer (NR concentration 270 nM)
# Assay Name: PBM binding z-score (relative to random genomic background probes); higher = stronger binding; sequences stand for … in GC…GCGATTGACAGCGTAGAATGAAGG
Think of -0.2 as a floor: if PBM binding z-score stands on it or above, it is true; beneath it, false.

[[record]]
primary_sequence = "CCTAGAAGGCCAATCTGGGTCACTCAAGGCTTGA"
group_label = "false"

[[record]]
primary_sequence = "GCGACTGGGGCAAAGCAGGTTACCATTAGGTTGG"
group_label = "false"

[[record]]
primary_sequence = "CAAACTTGGTCAAAGGTCAAAGTCGAGCCAACCA"
group_label = "true"

[[record]]
primary_sequence = "ATCGAAAGGTCGTGAGGTGATTATACAGAAAGGC"
group_label = "true"

[[record]]
primary_sequence = "CCTACTGGGCCAAAGGTCATTGCTTCCAATGCTC"
group_label = "true"

[[record]]
primary_sequence = "TCGCGTAGGTTACCAATGGGGCATTCAGCTTTCT"
group_label = "false"

[[record]]
primary_sequence = "ACAGACAGGTGAGTGAAGGTACCTCAGCTGGACG"
group_label = "false"

[[record]]
primary_sequence = "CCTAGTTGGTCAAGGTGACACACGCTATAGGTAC"
group_label = "true"

[[record]]
primary_sequence = "ATCGAAAGGTCGACGTGAGTATAGAGAAAGGGAA"
group_label = "true"

[[record]]
primary_sequence = "CCGACTGGGGCATAAGGTTACCATAAGCCAGCCC"
group_label = "false"

[[record]]
primary_sequence = "TAGCCTAGGTCATTCAGAGGCCAGTATAGAAAGC"
group_label = "true"

[[record]]
primary_sequence = "CAAACTAGGACACAGAGGTCAAAGTCCGTGCGTA"
group_label = "true"

[[record]]
primary_sequence = "GCCGCTAGGTCAGGTTGGTCAGCTAACGGGTACG"
group_label = "true"

[[record]]
primary_sequence = "TATACAGGGCCAAAGGCCAGAGTACGAATGTCGA"
group_label = "false"

[[record]]
primary_sequence = "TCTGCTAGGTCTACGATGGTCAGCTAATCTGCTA"
group_label = "false"

[[record]]
primary_sequence = "ACTAGCAGGCCAAGGTTCACTCAAGATTAGTCCG"
group_label = "true"

[[record]]
primary_sequence = "CCTACTGGTCCATTCAGAGGTCATTGATCATATG"
group_label = "true"

[[record]]
primary_sequence = "GCTGGTTGGTCAGTAAAAGGTCACACACCGGTCG"
group_label = "true"

[[record]]
primary_sequence = "ATGGAAAGGTCGAAGGTGAGTATACCCACCCGAA"
group_label = "true"

[[record]]
primary_sequence = "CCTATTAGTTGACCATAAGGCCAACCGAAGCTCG"
group_label = "true"

[[record]]
primary_sequence = "TGAATGAGGTTATAAGATCAGGGTACGTTGCAAA"
group_label = "true"

[[record]]
primary_sequence = "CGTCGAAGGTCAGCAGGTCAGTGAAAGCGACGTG"
group_label = "true"

[[record]]
primary_sequence = "AGAACGAGGGCACGCTGAGTTGATTGCAGAGTAG"
group_label = "false"

[[record]]
primary_sequence = "CGAACTAGGTCAGAACAGGACAGCGAAGGATGAT"
group_label = "false"

[[record]]
primary_sequence = "CCGACTGGGGCATAAGATTACCATAAGCCAGCCC"
group_label = "false"

[[record]]
primary_sequence = "TCATATAGATAAACAGGTGAAAGTCCGTAAGTTA"
group_label = "true"

[[record]]
primary_sequence = "ACAGACAGGTGACTGAAGGTAACTCAGCTGGACG"
group_label = "false"

[[record]]
primary_sequence = "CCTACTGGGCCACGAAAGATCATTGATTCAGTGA"
group_label = "false"

[[record]]
primary_sequence = "ATCACTAGGTAAAGATAGTTCAGTGAATGCAAAT"
group_label = "true"

[[record]]
primary_sequence = "TCTTATAGGTAATACAGGTGAAAGTCGGCATCTA"
group_label = "true"

[[record]]
primary_sequence = "GCTCGGAGGACAAGGTCAGCGCTTTGTCCGTAGA"
group_label = "false"

[[record]]
primary_sequence = "TCTGCTAGGTCAGTTGGTCAGCAAACGAGCTGCC"
group_label = "false"

[[record]]
primary_sequence = "CCTACTGGGCCAAGTTCATTGATCAGTCAAAGCA"
group_label = "true"

[[record]]
primary_sequence = "TCGAGTAGGTTACTAATGGGGCATTCAGCTTTCT"
group_label = "false"

[[record]]
primary_sequence = "GGATCGAGGGCATTCGAGTTGATAGCATGGCGAT"
group_label = "true"

[[record]]
primary_sequence = "CATACAGGATCAGCTAGGCCAGAGTAGGGACGGC"
group_label = "true"

[[record]]
primary_sequence = "ATCGAAAGGTCGTGAGGTCAGTATACAGAAAGGC"
group_label = "true"

[[record]]
primary_sequence = "TGAATGAGGTTAGAGATCAGGGAACGTGGCGTCG"
group_label = "false"

[[record]]
primary_sequence = "ATCGAAAGGTCGACGAGGTGAGTATCCACCGTTT"
group_label = "true"

[[record]]
primary_sequence = "TCTAGCAGGCCAGAGGGTCACTGAAGAGGTACGG"
group_label = "false"

[[record]]
primary_sequence = "CGAACTAGGTCATTGACAGTACAGTGAATAGTAA"
group_label = "true"

[[record]]
primary_sequence = "CCGACTGGGGTATAAGGTTACCATAAGCCAGCCC"
group_label = "true"

[[record]]
primary_sequence = "TGAGTGAGGTTATAAGATCAGGGAACGTTGCAAA"
group_label = "false"

[[record]]
primary_sequence = "CCAGGCAGGTGAAAGGTAACTCAGTCTGGTACGC"
group_label = "false"

[[record]]
primary_sequence = "CCTCGGAGGACATCAGGAGGTCAGAGCTGCCAGA"
group_label = "true"

[[record]]
primary_sequence = "AGTCAAAGTTCAGGCCGAGGTAACGTAAAGCACG"
group_label = "true"

[[record]]
primary_sequence = "ATCTCTAGGTAAAGTTCAGTGCAAGATCGATAGA"
group_label = "true"

[[record]]
primary_sequence = "TCTGCTAGGTCCGTTGGTCAGCTAACGAGCTGCC"
group_label = "false"

[[record]]
primary_sequence = "AATACCGGGTCACTAGGCCAGAGTAGGTACGAAT"
group_label = "true"

[[record]]
primary_sequence = "TAGCCTAAGTCATTGGGCCAGTATAGTACGCATC"
group_label = "false"

[[record]]
primary_sequence = "CGTCCAAGGTCATAGGAAGTCAGTGAAGACAGAT"
group_label = "true"

